- Test system: M14
- method notes: NCI tumour cell line growth inhibition, 48 h
Structures can show the parent of a compound that is named as a salt. The source made the active and inactive calls. Cut-off read from the data, not from the text of the source: active = GI50 up to about 1.1 µM and inactive = higher. Numbered stars: 1 amine (or outer) side, 2 acyl side, 3 side chain; on linkers, the order of the positions; unused ones are H or OH. Bridge positions count the residues as written; N and C are the ends. Square brackets hold non-standard residues; d marks the D form. Peptide text beside a SMILES is read from it. X58 = COc1c(N[*:1])cccc1C(=O)O[C@H](C(=O)[C@H](C)C(=O)[*:2])C(C)C; X57 = CC(C)C[C@H](C(=O)[*:2])C(C)C(=O)C1CCCN1[*:1]; NMeY = CN[C@@H](Cc1ccc(O)cc1)C(=O)O; Lac = C[C@H](O)C(=O)O
Possible outcomes: active, inactive

| molecule | target of assay | answer label |
| --- | --- | --- |
| COc1ccc2nc(C(=O)c3ccccc3)c(C)cc2c1 | M14 | inactive |
| C=C[C@@]1(C)CCC2(O)C(CCC3C2(C)CCC[C@@]3(C)COC(=O)CC(=O)OC)C1 (stereo partly drawn) | M14 | inactive |
| O=C(/C=C/c1cccc(Oc2ccccc2)c1)NCc1ccc(C(=O)NCc2ccccc2)cc1 | M14 | inactive |
| COc1cc(Nc2nc3cc(C(F)(F)F)ccc3nc2-c2ccccc2)cc(OC)c1OC | M14 | inactive |
| Nc1ncnc2c1sc1nc3ccccc3n12 | M14 | inactive |
| Cc1cc(S(=O)(=O)NC2=Nc3ccccc3C(c3ccccc3)N2)c(S)cc1Cl (stereo not drawn) | M14 | inactive |
| COC1CC2C=CC3C4OC2(/C(C)=C/C(C)C(C(C)O)OC1=O)C3C(O)C(C)C4OC(=O)c1ccc[nH]1 (stereo not drawn) | M14 | inactive |
| CC(=O)OCCOCNC(=S)N/N=C/c1ccc(Br)s1 | M14 | inactive |
| Cn1ccc2c(c1=O)C(=O)OC2(C)C [CERPEGIN] | M14 | inactive |
| CN(C)CCCNC(=O)c1cc(NC(=O)CCCn2c3ccccc3c3ccccc32)cn1C | M14 | inactive |
| COc1ccc(C[C@H]2C(=O)O[C@H](C)[C@H](NC(=O)[C@@H](CC(C)C)C(C)C(=O)C3CCCN3C(=O)[C@H](C)O)C(=O)Nc3cccc(c3OC)C(=O)O[C@@H](C(C)C)C(=O)[C@H](C)C(=O)N[C@@H](CC(C)C)C(=O)N3CCC[C@H]3C(=O)N2C)cc1 (stereo partly drawn) (H-[Lac][X57]T[X58]LP[NMeY](Me); ester 3-C) | M14 | inactive |
| CCO[C@@]12CCC3CC4CC[C@@](OCC)(O1)C4C32 (stereo partly drawn) | M14 | inactive |
| COc1cc2c(c(OC)c1OC)-c1ccc(OC)c(=O)cc1C(NC(=O)CCCCCNc1ccc(N=[N+]=[N-])cc1[N+](=O)[O-])CC2 (stereo not drawn) | M14 | active |
| N#Cc1c(N)c2c(c(-c3ccccc3)c1-c1ccccc1)C(=O)N(N)C2=O | M14 | inactive |
| Nc1n2nc(-c3ccccc3)sc2n[n+]1CC(=O)c1ccccc1 | M14 | inactive |
| O=[N+]([O-])c1ccc(N/N=C(\c2ccccc2)c2ccccn2)nc1 | M14 | active |
| COc1cc(N(CCC#N)CCC#N)ccc1C(/N=N/c1cccc([N+](=O)[O-])c1)=N\NC(=O)c1ccc(C)cc1 | M14 | inactive |
| COc1ccc(-c2cc(-c3ccccc3)c(C#N)c(=O)n2C2OC(CO)C(O)C(O)C2O)cc1 (stereo not drawn) | M14 | inactive |
| O=C(/C=C/c1ccccc1)Nc1ccccc1SCCCCl | M14 | inactive |
| CCOC(=O)c1cc(Br)c(-c2cc(C)co2)[nH]1 | M14 | inactive |
| COC(=O)c1c2c(cc3c1CC1(Cc4cc5c(cc4C1)CCC5)C3)CCC2 | M14 | inactive |
| Cc1nc2c(o1)/C(=N\c1ccccc1)c1nc(C)oc1/C2=N/c1ccccc1 | M14 | inactive |
| Cn1c(-c2cccs2)cc(-c2cccs2)c1-c1ccsc1 | M14 | inactive |
| CC(C)(C)c1c(C(C)(C)C)c(=O)c1=O | M14 | inactive |
| COc1ccc(/C(Cl)=C(/c2ccc(O)cc2)c2ccc(OCCN(C)C)cc2)cc1 | M14 | inactive |
| O=C(O)CC(O)(c1ccccc1C(=O)O)c1cccc2ccccc12 (stereo not drawn) | M14 | inactive |
| CCc1cccc(C)c1NS(=O)(=O)c1ccccc1 | M14 | inactive |
| COC(C)C(O)(C(=O)OCC1=CCN2CCC(O)C12)C(C)(C)O (stereo not drawn) | M14 | inactive |
| C[C@]12C=CC(=O)C=C1CC[C@@H]1[C@@H]2CC[C@]2(C)OC(=O)CC[C@@H]12 [TESTOLACTONE] | M14 | inactive |
| C[C@]12CC[C@H]3[C@@H](CCC4=CC(=O)CC[C@@]43C)[C@]1(O)CC[C@]2(O)C(=O)CO | M14 | inactive |
| CN(C)CN(C)c1nc(N(C)C)nc(N(C)C)n1 | M14 | inactive |
| CN[C@@H](C)[C@@H](O)c1ccccc1 [PSEUDOEPHEDRINE HYDROCHLORIDE] | M14 | inactive |
| Cn1c(=N)n[n+]([O-])c2ccccc21 | M14 | inactive |
| CN(C)CC(=O)N1CCc2c([nH]c3ccccc23)C1c1cccnc1 (stereo not drawn) | M14 | inactive |
| N#C/C(=C\c1ccc(F)cc1)c1nc2ccccc2c(=O)[nH]1 | M14 | inactive |
| O=C(O)c1cc(-c2ccc3cc(O)c(O)cc3c2)ccc1O | M14 | inactive |
| Cc1c(Cc2ccccc2)c(Cc2ccccc2)c(C)[s+]1[O-] | M14 | inactive |
| Cc1ccc(S(=O)(=O)N2CCN3C(=O)c4ccccc4C32c2ccc(F)cc2)cc1 (stereo not drawn) | M14 | inactive |
| CCC(C)C(NC(=O)c1c2ccccc2nc2ccccc12)C(=O)O (stereo not drawn) | M14 | inactive |
| CC(C)(C)[Si](C)(C)OC1/C(=C/C#N)C(n2ccc(=O)[nH]c2=O)OC1CO (stereo not drawn) | M14 | inactive |
| O=C1OI(C#Cc2ccccc2)c2ccccc21 | M14 | inactive |
| COc1ccc(OC)c2c1C=CC(Br)=CC2 | M14 | active |
| Cn1c(=O)[nH]c2c(c1=O)C(=O)CN2 | M14 | inactive |

Where these numbers come from: ChEMBL document CHEMBL1201862
